# Tested on: HCT-15 colon
# experimentNotes: NCI tumour cell line growth inhibition, 48 h
So I've got a bunch of compounds here, and I need their TGI values.
Give bare numbers, in µM.

# example entries with known answers
input: Need TGI of CCCCn1c2c(n(CCCC)c1=S)-c1c(n(CCCC)c(=S)n1CCCC)SSSS2 , thanks.
output: 4.45

input: Need TGI of COc1cc(/C=C2\COc3ccc(O)c(O)c3C2=O)cc(OC)c1 , thanks.
output: 10.8

input: Need TGI of CC(C)NC(=O)OCCN=C1c2ccccc2CCc2ccccc21 , thanks.
output: 77.8

Required: TGI, one value per compound below.
1. CC1C=CC(=O)C(n2cc(F)c(=O)[nH]c2=O)O1 (stereo not given)
2. C=C1c2nc3ccccc3n2C=C(c2ccccc2)N1c1ccccc1
3. CC(C)(C)c1ccc(C(O)c2ccc(C(C)(C)C)cc2)cc1
4. NS(=O)(=O)c1ccc(CNc2nc(-c3cccs3)nc3ccc(I)cc23)cc1

output:
[42.4, 51.9, 24.6, 28.9]

Source of measurements: PubChem BioAssay (NCI)
